Species: Homo sapiens
procedure_details: Selectivity index, ratio of IC50 for inhibition of recombinant human TYK2 to IC50 for inhibition of recombinant human JAK1
measure: Ratio IC50

Worked examples follow.
| molecule | recorded_measurement |
| --- | --- |
| O=C(Nc1nc2cccc([C@H]3CC[C@@H](NC(=O)[C@@H]4CC4(F)F)CC3)n2n1)C1CC1 | 12 |
| O=C(Nc1nc2cccc(C3CCC4(CC3)CCN(C(=O)[C@H]3CC3(F)F)C4)n2n1)C1CC1 (stereo partly drawn) | 9.2 |
| O=C(Nc1nc2cccc([C@H]3CCC4(CCN(C(=O)[C@@H]5CC5(F)F)CC4)C3)n2n1)C1CC1 | 13.2 |
| O=C(Nc1nc2cccc(C3=CCC(NC(=O)C4CC4(F)F)CC3)n2n1)C1CC1 (stereo not drawn) | 3.6 |

a: O=C(Nc1nc2cccc(C3=CC[C@@H](NC(=O)[C@H]4CC4(F)F)CC3)n2n1)C1CC1
b: O=C(Nc1nc2cccc(C3=CCN(C(=O)C4CC4)CC3)n2n1)C1CC1
c: N#CCC(=O)N1CCC2(CCC(c3cccc4nc(NC(=O)C5CC5)nn34)CC2)CC1
## Task Would you mind ranking these molecules by ascending Ratio IC50? Sort the labels as requested; that list is your answer.
## Result c, b, a
(c: 1.3, b: 2, a: 5.7)

FYI, the data here is from ChEMBL document CHEMBL5150077.
